Method notes: Photoreaction quantum yields and cross sections (HPLC, Reinecke's salt actinometry)
Assay type: physicochemical
Assay conditions: λex 690 nm, 0.1 eq Os, N2
Recorded metric: Quantum yield of drug release Φr (%)

>  <Compound>
CC1=C(I)C(C)=[N+]2C1=C(COC(=O)C(C)c1ccc(CC(C)C)cc1)c1c(C)c(I)c(C)n1[B-]2(C)C (centres unmarked) [BODIPY-IBF, BODIPY-ibuprofen]

>  <Units symbol>
%

>  <Reported measurement>
0.42

$$$$
>  <Compound>
CC1=C(I)C(C)=[N+]2C1=C(COC(=O)Cc1cccc3c(=O)c4ccc(C)c(C)c4oc13)c1c(C)c(I)c(C)n1[B-]2(C)C [BODIPY-DMXAA, BODIPY-vadimezan]

>  <Units symbol>
%

>  <Reported measurement>
0.71

$$$$
>  <Compound>
CC1=C(I)C(C)=[N+]2C1=C(COC(=O)/C=C/c1cccc(OCc3ccccc3)c1)c1c(C)c(I)c(C)n1[B-]2(C)C [BODIPY-BCA, BODIPY-benzyloxycinnamic acid]

>  <Units symbol>
%

>  <Reported measurement>
0.75

$$$$
>  <Compound>
CC1=C(I)C(C)=[N+]2C1=C(COC(=O)NCCc1ccc(O)c(O)c1)c1c(C)c(I)c(C)n1[B-]2(C)C [BODIPY-DPA, BODIPY-dopamine]

>  <Units symbol>
%

>  <Reported measurement>
0.60

$$$$
>  <Compound>
COc1ccc(CCNC(=O)OCC2=C3C(C)=C(I)C(C)=[N+]3[B-](C)(C)n3c(C)c(I)c(C)c32)cc1OC [BODIPY-HVA, BODIPY-homoveratrylamine]

>  <Units symbol>
%

>  <Reported measurement>
0.64

$$$$
>  <Compound>
COc1ccc2c(c1)c(CC(=O)OCC1=C3C(C)=C(I)C(C)=[N+]3[B-](C)(C)n3c(C)c(I)c(C)c31)c(C)n2C(=O)c1ccc(Cl)cc1 [BODIPY-IDM, BODIPY-indomethacin]

>  <Units symbol>
%

>  <Reported measurement>
0.60

$$$$
>  <Compound>
CC1=C(I)C(C)=[N+]2C1=C(COC(=O)NCCc1ccc(O)cc1)c1c(C)c(I)c(C)n1[B-]2(C)C [BODIPY-TyrA, BODIPY-tyramine]

>  <Units symbol>
%

>  <Reported measurement>
0.40

$$$$
>  <Compound>
CCCCN(C(=O)OCC1=C2C(C)=C(I)C(C)=[N+]2[B-](C)(C)n2c(C)c(I)c(C)c21)c1ccc(C(=O)OCCN(C)C)cc1 [BODIPY-TCI, BODIPY-tetracaine]

>  <Units symbol>
%

>  <Reported measurement>
0.36

$$$$
